- TEST SUMMARY: Plasma concentration in BALB/c mouse assessed as unbound fraction at 1 mg/kg, iv or 5 mg/kg, po
- Assay type: ADME, organism-based
ASSAY ENDPOINT: fraction unbound
Write no unit; give the number alone.

Enquiry: Give recorded fraction unbound. Cn1c(=O)cc(NC(C)(C)c2ncc(C3CC3)cn2)c2cc(Nc3ccnc(Cl)c3C#N)ccc21
Return: 0.013
